- Assay Target: T1, recombinant human PD-1-his protein (human, UniProt Q15116 25-167)
- T1 construct: also called hPD-1-his; not shown: his tag
- T1 sequence (Q15116 25-167 limits assumed): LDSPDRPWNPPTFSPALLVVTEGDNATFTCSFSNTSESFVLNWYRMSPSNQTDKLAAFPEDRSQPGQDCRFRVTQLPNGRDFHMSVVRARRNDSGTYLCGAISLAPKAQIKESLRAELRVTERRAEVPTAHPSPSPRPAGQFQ
- Assay Summary: ELISA; PD-1-his coated 2 µg/mL, anti-human IgG Fc-HRP
Assay Metric: EC50 (nM)
Give the number; nM is assumed, so skip it.

Example binders with recorded EC50:
* MHPD1-A-42 H Fc (Fc fusion, not shown: Fc) QVQLVESGGGLVQPGGSLRLSCATSGSRQTIYAMGWFRQAPGKGLEFVAGIGWAYATQYYADSVKGRFTISRDNTKNTLYLQMNSLRAEDTAVYYCAADLDHSGFDYWGQGTLVTVSS | 0.193
* MHPD1-A-43 H Fc (Fc fusion, not shown: a dimerising Fc or GST; small tags and cut ends) VHH: QVQLVESGGGLVQPGGSLRLSCATSGSRRSIYAMGWFRQAPGKGLEFVAGIGWAYATTYYADSVKGRFTISRDNTKNTLYLQMNSLRAEDTAVYYCAADLDRAGFDYWGQGTLVTVSS | 0.387

For the next question, use this binder.
Query: Give the measured EC50 of MHPD1-A-16 H Fc (Fc fusion, not shown: a dimerising Fc or GST; small tags and cut ends) VHH: QVQLVESGGGLVQPGGSLRLSCATSGSRVSIYAMGWFRQAPGKGLEFVAGIGWAYATTYYADSVKGRFTISRDNTKNTLYLQMNSLRAEDTAVYYCAADLDHSGFDYWGQGTLVTVSS .
Response: 0.187

These entries and their values trace back to patent US20240309093A1.
